- target entity: SIRT1 (Homo sapiens)
- Sequence (Q96EB6 1-747): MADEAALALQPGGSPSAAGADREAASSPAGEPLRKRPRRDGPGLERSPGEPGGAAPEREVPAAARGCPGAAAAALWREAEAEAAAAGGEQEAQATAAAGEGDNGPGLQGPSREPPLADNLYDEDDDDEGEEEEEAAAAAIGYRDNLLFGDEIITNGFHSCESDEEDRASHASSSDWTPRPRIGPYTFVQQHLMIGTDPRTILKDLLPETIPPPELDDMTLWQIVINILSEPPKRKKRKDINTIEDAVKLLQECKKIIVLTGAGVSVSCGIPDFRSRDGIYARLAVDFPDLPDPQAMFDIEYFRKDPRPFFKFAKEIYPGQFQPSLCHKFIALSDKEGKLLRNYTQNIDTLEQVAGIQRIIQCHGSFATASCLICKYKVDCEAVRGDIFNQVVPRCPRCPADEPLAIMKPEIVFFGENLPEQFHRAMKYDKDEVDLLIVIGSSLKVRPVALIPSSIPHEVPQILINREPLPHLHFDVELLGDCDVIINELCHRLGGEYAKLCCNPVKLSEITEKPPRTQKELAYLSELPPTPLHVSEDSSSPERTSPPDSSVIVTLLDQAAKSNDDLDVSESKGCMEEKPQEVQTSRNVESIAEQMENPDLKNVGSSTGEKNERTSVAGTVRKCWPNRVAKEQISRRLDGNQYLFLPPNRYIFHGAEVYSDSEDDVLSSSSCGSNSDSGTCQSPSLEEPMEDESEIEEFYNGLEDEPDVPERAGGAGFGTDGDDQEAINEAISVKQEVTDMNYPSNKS
- experimental details: SIRT1 mass spectrometry (MS) based deacetylation assay
- Assay type: biochemical
- condition set: Sirt1 activators; mass spectrometry assay; read-out: ED50 MS ASSAY
EC50: recorded values

1) CN(C)c1cccc(C(=O)Nc2ccccc2-c2nc3cc(CN4CCNCC4)cnc3s2)c1 : < 5 µM

Which EC50 value is on record for COc1cc(C(=O)Nc2cccc(-c3nc4ncccc4o3)c2)ccc1CN1CCCC1 ?
5 to 50 µM

Which EC50 value is on record for COc1ccc(C(=O)Nc2ccccc2-c2nc3cccnc3[nH]2)cc1 ?
< 5 µM

Which EC50 value is on record for COc1cc(C(=O)Nc2ccc(-c3nc4cnccc4s3)s2)cc(OC)c1OC ?
< 5 µM

Which EC50 value is on record for O=C(Nc1ccccc1-c1cn2cc(CN3CCNCC3)sc2n1)c1cnc2ccccc2n1 ?
< 5 µM

Which EC50 value is on record for COc1cc(C(=O)Nc2ccccc2-c2nc3cc(CN4CCOCC4)cnc3s2)cc(OC)c1OC ?
5 to 50 µM

Which EC50 value is on record for COc1cc(C(=O)Nc2cc(-c3nc4ncccc4o3)ccn2)ccc1CN1CCOCC1 ?
> 150 µM

Which EC50 value is on record for O=C(Nc1ccccc1-c1cn2c(CNCC(O)CO)csc2n1)c1cnc2ccccc2n1 (centres unmarked) ?
< 5 µM

###

- target entity: SIRT1 (Homo sapiens, UniProt Q96EB6)
- experimental details: SIRT1 mass spectrometry (MS) based deacetylation assay
- Assay type: biochemical
- condition set: Sirt1 activators; mass spectrometry assay; read-out: ED50 MS ASSAY
pEC50: −log10 of the molar value.
pEC50: recorded values

Solved entries (count: 2):
1) COc1cc(C(=O)Nc2ccccc2-c2cn3c(n2)CCCC3)cc(OC)c1OC : 4.30 to 5.30
2) COc1cc(C(=O)Nc2ccccc2-c2nc3cccnc3[nH]2)ccc1CN1CCCCC1 : 4.30 to 5.30

Which pEC50 value is on record for O=C(Nc1ccccc1-c1nc2cccnc2[nH]1)c1ccc(N2CCOCC2)cc1 ?
> 5.30

Which pEC50 value is on record for COc1ccc(C(=O)Nc2ccccc2-c2nc3cccnc3[nH]2)cc1OC ?
> 5.30

###

- target entity: SIRT1 (Homo sapiens)
- experimental details: SIRT1 mass spectrometry (MS) based deacetylation assay
- Format: biochemical
- condition set: Sirt1 activators; mass spectrometry assay; read-out: ED50 MS ASSAY
pEC50: −log10 of the molar value.
pEC50: recorded values

Solved entries (count: 3):
1) COc1ccc(C(=O)Nc2ccccc2-c2cn3c(n2)CCCC3)cc1OC : 4.30 to 5.30
2) COc1cc(C(=O)Nc2ccccc2-c2nc3cc(CN4CCNCC4)cnc3s2)cc(OC)c1OC : 4.30 to 5.30
3) COc1cc(C(=O)Nc2ccccc2-c2nc3cccnc3[nH]2)ccc1CN1CCN(C)CC1 : > 5.30

Which pEC50 value is on record for COc1cc(C(=O)Nc2ccccc2-c2nc3ncccc3o2)ccc1CN1CCCCC1 ?
4.30 to 5.30

Which pEC50 value is on record for COc1cc(NC(=S)Nc2cc(-c3nc4ncccc4o3)ccn2)cc(OC)c1OC ?
4.30 to 5.30

Which pEC50 value is on record for S=C(Nc1cccnc1)Nc1cccc(-c2nc3ccncc3s2)c1 ?
4.30 to 5.30

Which pEC50 value is on record for CN(C)c1ccc(C(=O)Nc2ccccc2-c2nc3ccncc3o2)cc1 ?
> 5.30

Which pEC50 value is on record for O=C(Nc1ccccc1-c1cn2c(CO)csc2n1)c1cnc2ccccc2n1 ?
> 5.30

###

pEC50: recorded values
- target entity: SIRT1 (Homo sapiens)
- experimental details: SIRT1 mass spectrometry (MS) based deacetylation assay
- Type: biochemical
- condition set: Sirt1 activators; mass spectrometry assay; read-out: ED50 MS ASSAY
pEC50: −log10 of the molar value.

1. O=C(CCc1ccccc1)Nc1ccccc1-c1nc2ccncc2s1 [Compound 460] : 4.30 to 5.30

Which pEC50 value is on record for COc1cc(C(=O)Nc2ccccc2-c2nc3cccnc3[nH]2)ccc1CN(C)C [Compound 540] ?
4.30 to 5.30

Which pEC50 value is on record for COc1ccc(C(=O)Nc2ccc(-c3nc4ccncc4o3)s2)c(OC)c1 [Compound 561] ?
> 5.30

Which pEC50 value is on record for O=C(Nc1ccccc1-c1nc2cc(CN3CCNCC3)cnc2s1)c1ccc(F)c(F)c1 [Compound 594] ?
4.30 to 5.30

Which pEC50 value is on record for Cc1cc(C(=O)Nc2ccccc2-c2cn3c(CN4CCNCC4)csc3n2)n(C)n1 [Compound 678] ?
4.30 to 5.30

Which pEC50 value is on record for COc1ccc(C(=O)Nc2ccc(-c3nc4cnccc4s3)s2)c(OC)c1 [Compound 515] ?
> 5.30

Which pEC50 value is on record for COc1cc(C(=O)Nc2ccccc2-c2nc3ccccc3[nH]2)ccc1CN1CCNCC1 [Compound 558] ?
> 5.30

###

- target entity: SIRT1 (Homo sapiens, UniProt Q96EB6)
- Sequence (Q96EB6 1-747): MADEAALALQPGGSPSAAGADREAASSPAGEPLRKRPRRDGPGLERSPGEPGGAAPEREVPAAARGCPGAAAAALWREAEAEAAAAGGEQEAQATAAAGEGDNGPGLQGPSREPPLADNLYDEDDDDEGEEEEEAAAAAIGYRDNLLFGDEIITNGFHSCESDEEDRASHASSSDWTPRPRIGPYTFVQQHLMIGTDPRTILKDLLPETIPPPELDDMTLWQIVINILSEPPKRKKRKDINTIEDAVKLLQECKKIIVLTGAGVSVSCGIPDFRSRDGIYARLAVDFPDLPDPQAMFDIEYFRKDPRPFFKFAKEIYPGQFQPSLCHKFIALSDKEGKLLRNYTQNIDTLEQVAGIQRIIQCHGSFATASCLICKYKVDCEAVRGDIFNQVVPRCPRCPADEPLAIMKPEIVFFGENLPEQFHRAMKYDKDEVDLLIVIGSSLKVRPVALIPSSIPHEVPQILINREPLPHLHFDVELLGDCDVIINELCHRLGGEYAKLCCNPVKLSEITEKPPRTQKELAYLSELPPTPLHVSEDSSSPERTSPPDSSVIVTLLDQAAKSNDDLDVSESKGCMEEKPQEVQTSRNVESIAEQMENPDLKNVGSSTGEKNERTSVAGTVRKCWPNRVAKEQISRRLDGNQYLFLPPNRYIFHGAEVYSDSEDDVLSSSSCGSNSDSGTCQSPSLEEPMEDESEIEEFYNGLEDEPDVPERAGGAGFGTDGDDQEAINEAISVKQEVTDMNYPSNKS
- experimental details: SIRT1 mass spectrometry (MS) based deacetylation assay
- Type: biochemical
- condition set: SIRT1 activation, mass spectrometry assay; read-out: ED50 MS ASSAY
pEC50: −log10 of the molar value.
pEC50: recorded values

Solved entries (count: 3):
1) COc1ccc(C(=O)Nc2ccccc2-c2cn3c(CN4CCNCC4)csc3n2)cc1OC : 4.30 to 5.30
2) O=C(Nc1ccccc1-c1nc2cc(CN3CCNCC3)cnc2s1)c1cc(-c2ccccc2)no1 : > 5.30
3) COc1cc(C(=O)Nc2ccccc2-c2cn3c(CN(C)C)csc3n2)cc(OC)c1OC : 4.30 to 5.30

In the following, a different compound is considered.
Which pEC50 value is on record for COc1ccc(C(=O)Nc2cccc(-c3nc4ccncc4o3)c2)cc1OC ?
4.30 to 5.30

Every entry's value here was drawn from patent US8044198B2.
